// data source = ChEMBL document CHEMBL2321824

system: OVCAR-3; experiment: Cytotoxicity against human OVCAR3 cells; assay type: functional
observation-type: GI50 (µM)
Quick note: give the figure in µM, leave out the unit.

smiles-input	unit-annotation	GI50
COc1ccc2c(c1)c(C=C1C(=O)NC(=S)NC1=O)cn2C(=O)c1ccccc1Br	µM	2.77
O=C1NC(=S)NC(=O)C1=Cc1cn(C(=O)c2cccc3ccccc23)c2ccccc12	µM	2.46

Input: Give the reported GI50 for this compound. `COc1ccc(C(=O)n2cc(C=C3C(=O)NC(=S)NC3=O)c3cc(OC)ccc32)cc1`
Output: 1.26

Input: Give the reported GI50 for this compound. `COc1ccc2c(c1)c(C=C1C(=O)NC(=S)NC1=O)cn2C(=O)c1cccc2ccccc12`
Output: 2.38
